# Lookup of reported self-cleavage keyed by entry
B1: LINE1-full (parent)
chain: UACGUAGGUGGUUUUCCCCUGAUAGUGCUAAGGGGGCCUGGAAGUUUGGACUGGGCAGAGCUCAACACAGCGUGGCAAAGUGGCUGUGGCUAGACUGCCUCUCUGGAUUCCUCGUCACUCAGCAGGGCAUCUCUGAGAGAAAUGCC

Variants of: B1
MEASUREMENT_DESCRIPTION: self-cleavage, relative activity (ratio to wild type); higher = more cleavage; in vitro, sequencing; the parent is a self-cleaving ribozyme
Enter a number only.

Solved cases (5 shown):
* A65G A141C | 0.38
* A64U G122C | 0.44
* U85C U119A | 0.25
* C37G U115C | 1.44
* C3U A140G | 0.97

Entry G4A U12C — recorded self-cleavage = 0.77

Noted for A59G U109A : its self-cleavage reads 0.09

U119C U143C has a reported self-cleavage of 1.49

For A2U U119C the variant record lists self-cleavage as 1.26

The variant listed as U47C A107G shows self-cleavage equal to 1.43
